meta.source: patent US6291463A

- TEST_TARGET: D2 receptors (Chlorocebus aethiops, UniProt P52702)
- Sequence (P52702 whole entry): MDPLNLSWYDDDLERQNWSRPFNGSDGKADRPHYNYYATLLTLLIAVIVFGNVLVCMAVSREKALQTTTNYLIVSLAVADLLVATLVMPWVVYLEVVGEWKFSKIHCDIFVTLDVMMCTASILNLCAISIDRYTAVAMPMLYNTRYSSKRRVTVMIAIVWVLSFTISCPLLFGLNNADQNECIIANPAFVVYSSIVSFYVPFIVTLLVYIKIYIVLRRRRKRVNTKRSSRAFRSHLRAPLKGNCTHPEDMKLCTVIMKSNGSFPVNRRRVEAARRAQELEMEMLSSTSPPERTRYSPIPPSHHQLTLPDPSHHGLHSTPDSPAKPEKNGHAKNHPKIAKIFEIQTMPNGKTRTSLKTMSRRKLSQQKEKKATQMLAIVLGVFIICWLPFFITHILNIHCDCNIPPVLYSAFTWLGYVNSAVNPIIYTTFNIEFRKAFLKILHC
- METHOD_SUMMARY: D2 receptor binding (displacement of 3H-YM 09151-2)
- MEASUREMENT_CONTEXT: COS cells with recombinant D2 receptors; 0.5 nM 3H-YM 09151-2; Table 2
pKi: −log10 of the molar value. Where a name gives a salt, the structure may show the parent alone.
ENDPOINT_LABEL: pKi

Cc1ccc(CN2CCN(c3nc4ccccc4s3)CC2)cc1 [Compound 2A, oxalate]    5.45
c1ccc2cc(CN3CCN(c4nc5ccccc5s4)CC3)ccc2c1 [Compound 4A, oxalate]    5.45
